# Tested system: PDE4
# Assay name: Inhibition of PDE4, radioenzymatic phosphodiesterase assay
# Type: biochemical, bovine
# Measurement parameters: Table 4 Selectivity
Parameter: IC50 (nM)
# number only, unit nM dropped from output

### Prompt Query (compound): "COc1cc2c(cc1OC)C(c1cc3ccccc3s1)=NN(C)C(=O)C2" ; field requested: IC50
### Response 300

### Prompt Query (compound): "COc1cc2c(cc1OC)C(c1ccc(-c3ccco3)cc1)=NN(C)C(=O)C2" ; field requested: IC50
### Response 900

### Prompt Query (compound): "CCOc1cc2c(cc1OC)C(c1ccccc1)=NCC(=O)N2" ; field requested: IC50
### Response 700

### Prompt Query (compound): "CCOc1cc2c(cc1OCC)N(CC)C(=O)CN=C2c1ccccc1" ; field requested: IC50
### Response 900

### Prompt Query (compound): "CCOc1cc2c(cc1OC)C(c1ccccc1)=NCC(=O)N2C" ; field requested: IC50
### Response 500

### Prompt Query (compound): CCOc1cc2c(cc1OCC)C(c1ccccc1)=NC(C)C(=O)N2 (centres unmarked) ; field requested: IC50
### Response 1700

### Prompt Query (compound): CCOc1cc2c(cc1OCC)C(CC)C(=O)N(C)N=C2c1cc2ccccc2s1 (centres unmarked) ; field requested: IC50
### Response 87

### Prompt Query (compound): "CCOc1cc2c(cc1OCC)C(c1ccccc1)=NCC(=O)N2" ; field requested: IC50
### Response 950
